Test system: NCI-H522
Test: NCI tumour cell line growth inhibition, 48 h
Calls of active or inactive are those of the source. Rule as the data show it: active = GI50 up to about 1.1 µM and inactive = higher.
MEASUREMENT LABEL: GI50

# molecule `CCOC(=O)c1sc2ncnc(N)c2c1C` ; its GI50 = 59.3 µM (inactive)

The recorded GI50 for `CCCCCC1=C/C(=C\c2[nH]c(-c3ccc[nH]3)cc2OC)N=C1C` is < 0.01 µM (active)

Summary for this molecule, `CCCCCCCCCCNC(=S)OC` : GI50 is 20.2 µM (inactive)

Record `O=C(/C=C/c1cccc(Oc2ccccc2)c1)NCc1ccc(C(=O)NCCc2ccccc2)cc1` . Reported GI50: 75 µM (inactive)

Lab book: GI50 of `O=C(O)Cc1cc(=O)[nH]c2c1/C(=N/O)CCC2` noted as > 100 µM (inactive)

The value of GI50 measured for the molecule `O=c1[nH]c(-c2ccccc2)nc2c1sc1nc3ccccc3n12` turned out to be > 100 µM (inactive)

For this molecule ( `CN(CCCCN)c1ccc2c(=O)[nH][nH]c(=O)c2c1` ), measured GI50 is > 100 µM (inactive)

Reported GI50 of `CN1C(=O)C(=O)c2cc3c(c4c2c1cc1ccccc14)OCO3` : 22.6 µM (inactive)

The molecule identified as `Cc1ccc(S(=O)(=O)NNC(=O)Nc2ccc([N+](=O)[O-])cc2)cc1` registered its GI50 at 26.5 µM (inactive)

Memo: `Nc1c(-c2nc3ccccc3s2)c2ccc([N+](=O)[O-])cc2c(=O)n1-c1cccc(C(=O)O)c1` , reported GI50: 37.8 µM (inactive)

Memo: `O=S(=O)(O)c1cc(O)c2c(O)c(/N=N/c3cccc4ccccc34)c(S(=O)(=O)O)cc2c1` , reported GI50: > 100 µM (inactive)

Quick note, GI50 for CC(C)(C)C1CCC2c3c([nH]c4ncccc34)C3C(=O)N(c4ccccc4)C(=O)C3C2C1 (stereo not given) landed at 89.3 µM (inactive)

Per the records, this molecule ( `S=C(/C=C1\SC(=N\c2ccccc2)/C(=N/c2ccccc2)N1c1ccccc1)Nc1ccccc1` ) has GI50 equal to > 100 µM (inactive)

molecule `CN(C)c1ccc(C(N)=O)cn1` , GI50 observed: > 100 µM (inactive)

Entry CCN(CC)CC1CCCCN1CC(=O)N1c2ccccc2C(=O)Nc2cccnc21 (stereo not given) — recorded GI50 = > 100 µM (inactive)

Field GI50 (entry CCCCCCCCCCCCCCCCNc1ccn(C2CC(OP(=O)(O)OCC3OC(n4cc(CC)c(=O)[nH]c4=O)CC3O)C(CO)O2)c(=O)n1 (stereo not given) ) reads 36.4 µM (inactive)

// field: GI50; key: `CC1=C(C(=O)NCc2ccccc2)C(c2ccc(C3C(C(=O)NCc4ccccc4)=C(C)NC(C)=C3C(=O)NCc3ccccc3)cc2)C(C(=O)NCc2ccccc2)=C(C)N1` ; value = 3.41 µM (inactive)

Value of GI50 reported for the molecule CCOP(=O)(OCC)C(Nc1ccc(Br)cc1)c1cccc([N+](=O)[O-])c1 (stereo not given) is 13.6 µM (inactive)

GET /value?item= `COc1ccc(-c2cc(-c3ccc(Nc4ccnc5cc(Cl)ccc45)cc3)[nH]c(=O)c2C#N)cc1` &field=GI50 returns > 100 µM (inactive)

Measured GI50 of `NNC(=O)Cn1ccnn1` : > 100 µM (inactive)

###

Test system: EKVX
Assay: NCI tumour cell line growth inhibition, 48 h
Active and inactive are the calls of the source. No stated cut-off is given here; in the data, active = GI50 up to about 1.1 µM and inactive = higher.
MEASUREMENT LABEL: GI50

Lab book: GI50 of CC(Oc1ccc2c(-c3ccccc3)cc(=O)oc2c1)C(=O)O (stereo not drawn) noted as > 100 µM (inactive)

Field GI50 (entry CC1=NN(C(=O)CC(=O)Nc2cccc(C)c2)C(=O)C1/N=N/c1ccc(C(=O)O)cc1 (stereo not drawn) ) reads > 100 µM (inactive)

Reported GI50 ( `O=c1oc2ccccc2cc1-c1ccc([N+](=O)[O-])cc1` ) = > 100 µM (inactive)

###

Test system: HCT-116
Assay: NCI tumour cell line growth inhibition, 48 h
Calls of active or inactive are those of the source. No stated cut-off is given here; in the data, active = GI50 up to about 1.1 µM and inactive = higher.
Provide the recorded GI50 for the entries that follow.

Tested on HCT-116: `CCOC(=O)c1sc(Nc2cc(Cl)ccc2Cl)nc1C` . Observed GI50: > 100 µM (inactive)

Note to self: GI50 of `COc1ccc2c(c1)OCc1c-2oc2ccccc2c1=O` with HCT-116 was > 100 µM (inactive)

Form field GI50 for item CCOc1ccc2nc(NC(=O)C(=O)C(C(=O)c3ccccc3-c3ccccc3)C3OC(=O)c4ccccc43)sc2c1 (configuration not stated) on HCT-116: 18.4 µM (inactive)

Measured on HCT-116, O=C1CCCCCCCCCCC1CN1CCOCC1 (configuration not stated) has a documented GI50 of > 100 µM (inactive)

Readout GI50 for `Nc1ncn2c(n1)nc1ccccc12` , test system HCT-116, was > 100 µM (inactive)

Assay HCT-116, sample `COc1ccc(OC)c2c1ccc1c(C)c3ccccc3c(C)c12` , GI50 read: 67.9 µM (inactive)

The reported GI50 value, HCT-116, for `Clc1ccc(C[P+](c2ccccc2)(c2ccccc2)c2ccccc2)cc1Cl` reads 1.93 µM (inactive)

# `N[C@@H](Cc1ccccc1)C(=O)N1CCC[C@@H]1P(=O)(Oc1ccccc1)Oc1ccccc1` with HCT-116: GI50 is > 100 µM (inactive)

// GI50 (HCT-116) for `CN(Cc1ccccc1)/C(=N\C#N)N(Cc1ccccc1)Cc1ccccc1` = 18.7 µM (inactive)

Test item CC1(C)C(O)c2ccccc2OC1N1CCN(C2Oc3ccccc3C(O)C2(C)C)CC1 (configuration not stated) ; HCT-116; reported GI50 was > 100 µM (inactive)

CCOP(=O)(OCC)C(NC(=O)OCC(Cl)(Cl)Cl)n1nnc(C(=O)OC)c1C(=O)OC (configuration not stated) on HCT-116 gives GI50 = > 100 µM (inactive)

// compound Cc1ccc(C(=O)C2=CN=C3C(=O)N(c4ccccc4)N(C)C3(C)C2=N)cc1 (configuration not stated) , assay HCT-116, GI50 value: > 100 µM (inactive)

// GI50 (HCT-116) for CCC(C#N)NC(=O)NC(C#N)CC (configuration not stated) = > 100 µM (inactive)

# GI50 measured on HCT-116 for item `Cn1c(Nc2ccccc2)c(/C=N\c2ccccc2)c(=O)n(C)c1=O` = 48.2 µM (inactive)

Simply: CC(C)(C)c1cc(C(C)(C)C)c(P=C(Cl)Cl)c(C(C)(C)C)c1 (configuration not stated) , HCT-116, GI50 = > 100 µM (inactive)

The compound CCCCCCCCCCCCCCCCNc1ccn(C2CC(OP(=O)(O)OCC3OC(n4cc(CC)c(=O)[nH]c4=O)CC3O)C(CO)O2)c(=O)n1 (configuration not stated) on HCT-116: GI50 was 50.1 µM (inactive)

Bench note, HCT-116: COC(=O)C(C(=O)OC)C1CCCC(=O)C1 (configuration not stated) , GI50 reads > 100 µM (inactive)

For the compound `Cc1cn(CC2=NCCCN2)c(=O)[nH]c1=O` , the measured GI50 on HCT-116 was > 100 µM (inactive)

The compound COc1cc2oc3cc(=O)cc4oc(-c5ccccc5)cc(c2c2c1CCC(c1ccccc1)O2)c43 (configuration not stated) , tested on HCT-116, showed GI50 of 29.2 µM (inactive)

Record `Cc1cc(/N=C/c2ccc(C#N)cc2)n(-c2ccccc2)n1` has HCT-116 GI50 equal to 49.1 µM (inactive)

Case `CC(C)(c1ccccc1)c1ccc(OC#N)cc1` , HCT-116, GI50 recorded as 34.4 µM (inactive)

The measured GI50 that Cc1ccc(S(=O)(=O)OC2CC(C(C)(C)C)CCC2c2ccccc2)cc1 (configuration not stated) showed for HCT-116 is 50 µM (inactive)

###

System: HCT-116
Test: NCI tumour cell line growth inhibition, 48 h
Calls of active or inactive are those of the source. Rule as the data show it: active = GI50 up to about 1.1 µM and inactive = higher.
Use one of these outcomes when replying: TRUE for active, FALSE for inactive

Dear colleague, could you share the recorded outcome for `COc1ccc(-c2cc(-c3ccc(Nc4ccnc5cc(C(F)(F)F)ccc45)cc3)[nH]c(=O)c2C#N)cc1` when you have a moment?
FALSE

Check the results log: what was the call for `O=C(Cn1ccnc1[N+](=O)[O-])NCCO` ?
FALSE

# lookup: test call for `Cc1ccc(/C=C/C(=O)CCN(C)C)cc1`
FALSE

Please share the test call associated with `Nc1ccccc1Nc1ccccc1C(=O)[O-].Nc1ccccc1Nc1ccccc1C(=O)[O-].[Zn+2]` .
FALSE

# fetch the recorded call for `O=C1C=C(C2=CC(=O)C(=O)c3ccccc32)c2ccccc2C1=O` here
FALSE

Call for entry `O=C1C(=Cc2ccc([N+](=O)[O-])o2)C(=O)N(CCc2ccccc2)S(=O)(=O)N1CCc1ccccc1` :
FALSE

Field: outcome | Entry: O=C1c2ccccc2C(=O)c2c(NC(=O)C(Cl)CCl)cccc21 (configuration not stated)
FALSE

GET /call?item= `COc1ccc([C@@H]2C[C@@H]3C(=O)OC(=O)[C@@H]3c3c2c2ccccc2n3C)cc1` returns the recorded outcome of this test.
FALSE

For C=C(C=O)[C@@H]1C2OC(=O)C(=C)[C@@H]2CC(O)[C@@]1(C)CC (some centres not stated) , what call appears in the results of this test?
FALSE

Would you mind telling me which call this test gave O=C(Oc1ccc(OC(Oc2ccccc2)c2ccccc2)cc1)c1ccccc1 (configuration not stated) ?
FALSE

// return assay outcome for `COc1ccc(/C(C)=N/NC(=S)N(C)C)c(O)c1`
FALSE

Recorded test call requested for Cc1ccc(C)c(N2C(=O)C(=O)C(c3nc4ccccc4o3)/C(=N\NC(=O)c3ccccc3O)C2=O)c1 (configuration not stated)
FALSE

# fetch the recorded call for `CC(=O)CSc1c(-c2ccccc2)c(=O)n(-c2ccccc2)c(=S)n1-c1ccccc1` here
FALSE

Hi, do you know how `Cc1cc([N+](=O)[O-])c(C)c2c1[nH]c1ccc(Cl)cc12` came out in this test?
FALSE

// param item: `O=C(O)/C(Cl)=C(\Cl)C(=O)c1ccccc1` ; yields the recorded call
FALSE

What was the test verdict on COC(=O)C1=CC(=O)C(C(=O)Nc2ccc(OC)cc2)C(c2ccccc2)O1 (configuration not stated) ?
FALSE

Record request — test call for CCOC(=O)Oc1c(OC)cc(C(=O)NC2CCc3cc(OC)c(OC)c(OC)c3-c3ccc(SC)c(=O)cc32)cc1OC (configuration not stated)
TRUE

What is the recorded call for this molecule in the test? `O=C(/C=C/c1ccc(OCc2ccccc2)c(OCc2ccccc2)c1)OCc1ccccc1`
FALSE

Hey, what did the test say about `N#C/C(=C\c1ccc(CP(=O)(O)O)cc1)C(N)=O` ?
FALSE

Fill in: this test's call for N#CC(/N=N/c1ccc(Cl)cc1)c1nc2ccccc2o1 (configuration not stated) is ___
FALSE

Fill in: this test's call for `O=C(NC(=S)NC(=O)c1cc(O)c(O)c(O)c1)c1cc(O)c(O)c(O)c1` is ___
FALSE

Look up the recorded call for `O=C(NCc1cccnc1)NCc1cccnc1` in this test.
FALSE

Lab log entry: `CNC(=S)N/N=C/c1ccc([N+](=O)[O-])s1` — outcome as called in the assay?
FALSE

Would you mind telling me which call this test gave `Cc1cc(C)nc(NS(=O)(=O)c2ccc(NC(=O)c3cccc4c(=O)c5ccccc5[nH]c34)cc2)n1` ?
FALSE

Record lookup: outcome of this test for CCC(O)CCCCCCCCCCCCCCC(=O)O (configuration not stated) ?
FALSE

Just curious, what result did `c1ccc(/N=C2\c3ccsc3/C(=N/c3ccccc3)c3ccsc32)cc1` get here?
FALSE

What was the test verdict on O=C1CSC2(CC(/C=C/c3cccs3)=NN2c2cccc(S(=O)(=O)O)c2)N1c1nc2ccccc2s1 (configuration not stated) ?
FALSE

Each molecule tested received a call. Report the one for `COC(=O)c1cc(-c2ccc(OC)c(OC)c2)oc1-c1ccc(OC)c(OC)c1` .
FALSE

# lookup: test call for `Cc1nnc2c3c(-c4ccccc4)c(-c4ccccc4)oc3nc(N(C)C)n12`
FALSE

Field: outcome | Entry: `Cc1ccc(S(=O)(=O)NNC(=O)Nc2ccc([N+](=O)[O-])cc2)cc1`
FALSE

Give the logged outcome of this assay for the following molecule: `CCCCCCCCCCCCCC/C(C(=O)OC)=C(/O)C(=O)OCC`
FALSE

Hi team, can someone confirm the assay call for CN(C)c1ccc(C(C#N)NNC(=O)Cc2ccccc2)cc1 (configuration not stated) ?
FALSE

What call does the record list for `O=C(/C=C/c1cccc(Oc2ccccc2)c1)NCc1ccc(C(=O)NCCc2ccccc2)cc1` ?
FALSE

Which result was noted for this molecule in the test: `O=c1oc2ccccc2cc1-c1ccc([N+](=O)[O-])cc1`
FALSE

Call for entry `CC(C)c1cccc(=O)c(O)c1` :
FALSE

Could you please tell me the result logged for CC(Oc1ccc(OCC2CCCCC2)cc1)C(=O)N(CCO)CCO (configuration not stated) in this assay?
FALSE

Status in this test for `O=C1CCCN(c2ccccc2)N1` ?
FALSE
